Value source: ChEMBL document CHEMBL2029249

# assay.name: Apparent permeability from apical to basal side of human Caco2 cells at 10 uM
# condition.summary: Caco-2
Papp A→B at 10 µM overview
Field format: number, assumed ×10⁻⁶ cm/s, no unit text.

The cases that follow already have their Papp A→B at 10 µM on record.
INSERT INTO assay_data (smiles_repr, u, number) VALUES
  ('CCS(=O)(=O)n1c2c(c3cc(C(=O)N4CCC(C)CC4)ccc31)CN(C1CCOCC1)CC2', '×10⁻⁶ cm/s', 13),
  ('CN(C(=O)c1ccc2c(c1)c1c(n2C)CC[C@@H](C2CCOCC2)C1)[C@H](CO)CCC(=O)NCCF', '×10⁻⁶ cm/s', 0.11),
  ('CNC(=O)CCCN(C)C(=O)c1ccc2c(c1)c1c(n2C)CC[C@@H](C2CCOCC2)C1', '×10⁻⁶ cm/s', 12),
  ('CCN(CC(=O)NC1CC1)C(=O)c1ccc2c(c1)c1c(n2C)CC[C@@H](C2CCOCC2)C1', '×10⁻⁶ cm/s', 23),
  ('CN(CC(=O)NC1CC1)C(=O)c1ccc2c(c1)c1c(n2C)CC[C@@H](C2CCOCC2)C1', '×10⁻⁶ cm/s', 27);

Consider now this further compound.
Could you tell me which Papp A→B at 10 µM is on file for CNC(=O)CC[C@@H](CO)N(C)C(=O)c1ccc2c(c1)c1c(n2C)CC[C@@H](C2CCOCC2)C1 ?
0.15

----------
# assay.name: Oral bioavailability in Sprague-Dawley rat at 9 umol/kg
# Assay type: ADME, organism-based
# condition.summary: in vivo
readout.label: bioavailability (%)
Lab book: enter the figure in %, no units written.

Requested field: bioavailability. Item: CNC(=O)CCCN(C)C(=O)c1ccc2c(c1)c1c(n2C)CC[C@@H](C2CCOCC2)C1
100

----------
The reader will find reported solubility thermodynamic values listed item by item below.
# assay.name: Thermodynamic solubility of the compound at pH 7.4
# condition.summary: buffer
Use µM as the unit, but write only the number.

INSERT INTO assay_data (molecule, number) VALUES
  ('CN(CC(=O)NC1CC1)C(=O)c1ccc2c(c1)c1c(n2C)CCC(C2CCOCC2)C1 (racemic)', 108),
  ('CN(C(=O)c1ccc2c(c1)c1c(n2C)CC[C@@H](C2CCOCC2)C1)[C@H](CO)CCC(=O)NCCF', 1310),
  ('CN(CCC(=O)NC1CC1)C(=O)c1ccc2c(c1)c1c(n2C)CCC(C2CCOCC2)C1 (stereo not drawn)', 523),
  ('CN(CCCC(=O)NC1CC1)C(=O)c1ccc2c(c1)c1c(n2C)CCC(C2CCOCC2)C1 (stereo not drawn)', 444),
  ('CCN(CC(=O)NC1CC1)C(=O)c1ccc2c(c1)c1c(n2C)CC[C@H](C2CCOCC2)C1', 49),
  ('CCN(CC(=O)NCCF)C(=O)c1ccc2c(c1)c1c(n2C)CC[C@@H](C2CCOCC2)C1', 71),
  ('CONC(=O)CCCN(C)C(=O)c1ccc2c(c1)c1c(n2C)CC[C@@H](C2CCOCC2)C1', 1330),
  ('CNC(=O)CCCN(C)C(=O)c1ccc2c(c1)c1c(n2C)CCC(C2CCOCC2)C1 (racemic)', 1550),
  ('CN(CC(=O)NC1CC1)C(=O)c1ccc2c(c1)c1c(n2C)CC[C@H](C2CCOCC2)C1', 63),
  ('CCN(CCCC(=O)NC1CC1)C(=O)c1ccc2c(c1)c1c(n2C)CCC(C2CCOCC2)C1 (stereo not drawn)', 224);

Which solubility thermodynamic is reported for this molecule? CCN(CC(=O)NC1CC1)C(=O)c1ccc2c(c1)c1c(n2C)CC[C@@H](C2CCOCC2)C1
30

Need solubility thermodynamic of CN(CCCC(=O)NCC#N)C(=O)c1ccc2c(c1)c1c(n2C)CC[C@@H](C2CCOCC2)C1 , thanks.
300

Quick one: solubility thermodynamic for Cc1c(C(=O)c2cccc3ccccc23)c2cccc3c2n1[C@H](CN1CCOCC1)CO3 ?
2

# solubility thermodynamic lookup, item CCN(CCCC(=O)NCCO)C(=O)c1ccc2c(c1)c1c(n2C)CC[C@@H](C2CCOCC2)C1
760

Consider the molecule CCN(CC(=O)NC1CC1)C(=O)c1ccc2c(c1)c1c(n2C)CCC(C2CCOCC2)C1 (racemic) and give its measured solubility thermodynamic.
36

Consider the molecule shown here: CN(CCCC(=O)NCCO)C(=O)c1ccc2c(c1)c1c(n2C)CC[C@@H](C2CCOCC2)C1 What is its recorded solubility thermodynamic?
2490
